- System: MCF7 breast
- procedure-details: NCI-60 one-dose screen, 48 h (100 = growth as untreated, 0 = no growth, -100 = all killed)
- experimental-setup: 10 µM unless noted
The panel holds about 83,000 compounds, 20% with a hit somewhere; the sample as a whole holds those more often.

# compound, growth (%)
records = [
    ("CCN(CC)c1ccc2cc(NC(=O)OCCNC(=O)CCNC(=O)[C@H](CC(C)C)NC(=O)C(C)(C)NC(=O)C(C)(C)NC(=O)[C@H](CC(C)C)NC(=O)CCNC(=O)C(C)(C)NC(=O)[C@H](CC(C)C)NC(=O)CCNC(=O)[C@@](C)(CC)NC(=O)[C@H](C)NC(=O)CCNC(=O)C(C)(C)NC(=O)[C@H](C)NC(=O)[C@@H]3CCCN3C(=O)[C@@](C)(CC)NC(=O)[C@H](Cc3ccccc3)NC(=O)C3CCCN3C(=O)C(C)(C)NC(=O)C3CCCN3C(=O)C(C)(C)NC(C)=O)c(=O)oc2c1 (stereo partly specified)", -88.2),
]
